# system-tested: GMPPNP-loaded KRAS G12C (Homo sapiens, UniProt P01116, G12C)
# Sequence (P01116 1-188 isoform P01116-2 G12C): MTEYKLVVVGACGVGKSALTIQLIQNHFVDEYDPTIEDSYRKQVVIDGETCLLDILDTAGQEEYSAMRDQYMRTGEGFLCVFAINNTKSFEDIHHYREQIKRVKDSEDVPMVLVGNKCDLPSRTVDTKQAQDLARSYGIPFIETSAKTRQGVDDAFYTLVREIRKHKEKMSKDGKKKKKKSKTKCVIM
# assay-remarks: KRAS G12C RAF Disruption Assay (HTRF)
# cond: recombinant GMPPNP-loaded KRAS G12C (5 nM), 20 min with compound; GST-RAF1 RBD (9 nM); HTRF signal; read-out: KRASG12C RAF Disruption Assay (IC50)
Could you please report measured IC50 for the items listed next?
Numbers only, in nM.

[[record]]
compound = "C#Cc1c(F)ccc2cc(O)cc(-c3ncc4c(N5C[C@H]6CC[C@@H](C5)N6C(=O)/C(F)=C/c5cccc(COC)n5)nc(OC[C@@]56CCCN5C[C@H](F)C6)nc4c3F)c12"
output_unit = "nM"
reported = 60


Dear colleague, could you please provide IC50 for the compounds listed below?
1. N#Cc1c(N)sc2c(F)ccc(-c3ncc4c(N5CCN(C(=O)/C(F)=C/c6nccs6)CC5)nc(OC[C@@]56CCCN5C[C@H](F)C6)nc4c3F)c12
2. N#CC[C@H]1CN(c2nc(OC[C@@]34CCCN3C[C@H](F)C4)nc3c(F)c(-c4ccccc4C4CCC4)ncc23)CCN1C(=O)/C(F)=C/c1ccccn1
3. C#Cc1c(F)ccc2cc(O)cc(-c3ncc4c(N5C[C@H]6CC[C@@H](C5)N6C(=O)/C(F)=C/c5ccc(C)cn5)nc(OC[C@@]56CCCN5C[C@H](F)C6)nc4c3F)c12

A:
6
57
45

Reference source: patent US20240067662A1
